Test system: iCell cardiomyocytes (human iPSC-derived cardiomyocytes)
Test: High-content imaging of cytotoxicity and mitochondrial integrity in iPSC-CMs
Format: cell-based
Conditions: Homo sapiens, Cardiomyocyte, 24 h, 0.01 µM; 24hrs; 0.00 µM = 100.00; read-out: cm.cam.24hrs
Assay Endpoint: viability at 0.01 µM (%)
Provide the reading as a plain figure in %.

Oc1cc(Cl)c(-c2cc(Cl)ccc2Cl)cc1Cl; 99.2
Clc1cc(Cl)c(-c2cc(Cl)c(Cl)cc2Cl)cc1Cl; 94.6
Clc1ccc(Cl)c(-c2c(Cl)ccc(Cl)c2Cl)c1; 97.2

// next entry
Query: # assay system iCell cardiomyocytes (human iPSC-derived cardiomyocytes): give viability at 0.01 µM of `COc1cc(Cl)c(-c2cc(Cl)ccc2Cl)cc1Cl`
Response: 97.9

###

System: iCell cardiomyocytes (human iPSC-derived cardiomyocytes)
Test: Intracellular Ca2+ flux / beating parameters in iCell cardiomyocytes (FLIPR tetra), 90 min or 24 h
Type: cell-based
Conditions: Homo sapiens, Cardiomyocyte, 1.5 h, 1.00 µM; 0.00 µM = 100.00; read-out: cm.amp.cv.90min
Structures can show the parent of a compound that is named as a salt.
Assay Endpoint: activity at 1 µM (%)
Provide the reading as a plain figure in %.

Completed entries (count: 3):
O=S(=O)(O)Oc1cc(-c2ccccc2)ccc1Cl [3-yl PCB 3 sulfate]; 94.9
Clc1ccc(-c2ccccc2)cc1 [PCB3]; 123
Oc1cccc(-c2ccc(Cl)cc2)c1 [3'-OH PCB3]; 92.4

// next entry
Query: Please look at this compound and report its activity at 1 µM: COc1ccc(-c2ccc(Cl)cc2)cc1 [4'-OMe PCB3]
Response: 117

###

Test system: iCell endothelial cells (human iPSC-derived ECs)
Assay: Tube formation (tubulogenesis) assay in iCell endothelial cells, 18 h
Format: cell-based
Details: Homo sapiens, Endothelial cell, iPSC-EC tube formation, 18 hr, 100.00 µM, 0.00 µM control = 100.00, read-out: endo.ttl.18hr
Counter-ions that a name gives are not always drawn.
The entries below come with measured activity at 100 µM values attached.

Oc1ccc(-c2ccc(Cl)cc2)cc1 [4'-OH PCB3]; 0.48%
Oc1cc(Cl)cc(-c2cccc(Cl)c2)c1 [5-OH PCB 11]; 2.12%
O=S(=O)(O)Oc1cc(Cl)ccc1-c1ccccc1 [2-yl PCB 3 sulfate]; 89%
COc1ccc(-c2cccc(Cl)c2)cc1Cl [4-OMe PCB11]; 100%
O=S(=O)(O)Oc1ccc(-c2cccc(Cl)c2)cc1Cl [4-yl PCB 11 sulfate]; 25.6%

// next entry
Query: Please look at this compound and report its activity at 100 µM: Oc1ccc(-c2cccc(Cl)c2)cc1Cl [4-OH PCB11]
Response: 11.5%

###

System: iCell cardiomyocytes (human iPSC-derived cardiomyocytes)
Test: High-content imaging of cytotoxicity and mitochondrial integrity in iPSC-CMs
Assay type: cell-based
Conditions: Homo sapiens, Cardiomyocyte, 1.5 h, 0.01 µM; 0.00 µM = 100.00; read-out: cm.cam.90min
Where a name gives a salt, the structure may show the parent alone.
Assay Endpoint: viability at 0.01 µM
Give your result as the value with the unit written after it.

Completed entries (count: 2):
COc1ccc(-c2ccc(Cl)cc2)cc1 [4'-OMe PCB3]; 95%
Oc1cccc(-c2ccc(Cl)cc2)c1 [3'-OH PCB3]; 101%

Query: Please look at this molecule and report its viability at 0.01 µM: O=C1C=CC(=O)C(c2ccc(Cl)cc2)=C1 [4-Cl-BQ, 2-(4-Chlorophenyl)benzo-2,5-quinone]
Response: 103%

Query: Please look at this molecule and report its viability at 0.01 µM: Oc1cc(Cl)cc(-c2cccc(Cl)c2)c1 [5-OH PCB 11]
Response: 91%

Query: Please look at this molecule and report its viability at 0.01 µM: O=S(=O)(O)Oc1cc(Cl)ccc1-c1ccccc1 [2-yl PCB 3 sulfate]
Response: 88.1%

Query: Please look at this molecule and report its viability at 0.01 µM: Clc1ccc(-c2ccccc2)cc1 [PCB3]
Response: 104%
